test system: MOLT-14; test: selective drug sensitivity score (sDSS, relative to normal bone marrow) (sDSS (score)); higher = more potent and effective on the cell line relative to normal bone marrow cells; conditions: 72 h;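 also: ALL cell lines in 384-well plates, five doses spanning 10,000-fold, each plate scaled between vehicle and 100 µmol/L benzalkonium chloride controls, sDSS an adapted area-under-curve metric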
Recorded selective drug sensitivity score values for a group of compounds are listed next.

# example entries with known answers
Lookup: selective drug sensitivity score lookup needed for CCOc1ccccc1-n1c(C(C)N2CCN(C(=O)COc3ccc(Cl)cc3)CC2)nc2ccccc2c1=O (centres undefined) [Erastin] (top concentration 10000 nM) , thanks.
Found: 8.54

Lookup: Query O=C(c1cccc(Cl)c1F)N1CCN(Cc2cccc(Nc3nccs3)n2)CC1 [MK-8745] (top concentration 10000 nM) next
Found: 7.8

Lookup: Query O=c1sn(-c2cccc3ccccc23)c(=O)n1Cc1ccccc1 [Tideglusib] (top concentration 3000 nM) next
Found: -0.3

Lookup: Query C[C@H]1C[C@@H]2[C@H]([C@@H](O)C[C@@]3(C)[C@H]2CC[C@]3(O)C(=O)CO)[C@@]2(C)C=CC(=O)C=C12 [Methylprednisolone] (top concentration 10000 nM) next
Found: -2.3

Lookup: Query Nc1cc(F)ccc1NC(=O)/C=C/c1cnn(C/C=C/c2ccccc2)c1 [RGFP966] (top concentration 10000 nM) next
Found: 17.1

Lookup: Query NC(=O)Nc1cc(-c2cccc(F)c2)sc1C(=O)N[C@H]1CCCNC1 [AZD7762] (top concentration 1000 nM) next
Found: 0.6

More entries:
Lookup: selective drug sensitivity score lookup needed for Cc1cc(Nc2cc(CN3CCOCC3)c3nc(C)c(Cc4ccc(Cl)cc4F)n3n2)n[nH]1 [Gandotinib] (top concentration 10000 nM) , thanks.
Found: 3.18

Lookup: Query Cc1ccc(NC(=O)c2ccc(CN3CCN(C)CC3)cc2)cc1Nc1nccc(-c2cccnc2)n1 [Imatinib] (top concentration 10000 nM) next
Found: 0.46

Lookup: Query CO[C@H]1CC[C@H](N2C(=O)CNc3ncc(-c4ccc(C(C)(C)O)nc4)nc32)CC1 [CC-223] (top concentration 10000 nM) next
Found: 0.62

Lookup: Query C[C@@H](Oc1cc(-n2cnc3ccc(CN4CCN(C)CC4)cc32)sc1C(N)=O)c1ccccc1C(F)(F)F (top concentration 10000 nM) next
Found: 24.8

Lookup: Query Cn1ncnc1[C@H]1c2n[nH]c(=O)c3cc(F)cc(c23)N[C@@H]1c1ccc(F)cc1 [Talazoparib] (top concentration 1000 nM) next
Found: 10.5

* * *

Recorded selective drug sensitivity score values for a group of compounds are listed next.
system: MHH-CALL-3; assay: selective drug sensitivity score (sDSS, relative to normal bone marrow) (sDSS (score)); higher = more potent and effective on the cell line relative to normal bone marrow cells; details: 72 h
Please reply with the value in numeric form only.

Lookup: selective drug sensitivity score lookup needed for O=C(NC[C@H](O)CN1CCc2ccccc2C1)c1cc(NC2COC2)ncn1 (top concentration 10000 nM) , thanks.
Found: -0.06

Lookup: Query NC(=O)c1cccc2cn(-c3ccc(C4CCCNC4)cc3)nc12 (configuration not stated) [Niraparib] (top concentration 10000 nM) next
Found: 10.7

Lookup: Query COc1cc(OC)cc(N(CCNC(C)C)c2ccc3ncc(-c4cnn(C)c4)nc3c2)c1 [Erdafitinib] (top concentration 1000 nM) next
Found: 0.64

Lookup: Query C[C@H](Nc1ncnc2[nH]cnc12)c1cc2ccc(F)cc2nc1-c1ccccn1 [AMG319] (top concentration 1000 nM) next
Found: -0.42

Lookup: Query O=C(c1ccc(C(=O)N2CCC(N3CCCC3)CC2)c(Nc2ccccc2)c1)N1CCC(N2CCCC2)CC1 [UNC1215] (top concentration 10000 nM) next
Found: 0

Lookup: Query Cc1[nH]c2ccccc2c1CCNCc1ccc(/C=C/C(=O)NO)cc1 [Panobinostat] (top concentration 1000 nM) next
Found: 15.6

More entries:
Lookup: selective drug sensitivity score lookup needed for COc1cc(OC2CCN(C)CC2)ccc1Nc1ncc2c(n1)n(C1CCCC1)c(=O)n2C [AZ3146] (top concentration 10000 nM) , thanks.
Found: -4.16
